All figures here come from patent US9340577B2.

- ASSAYED_TARGET: A*2601 (Homo sapiens, UniProt P04439, A114D/A173T/A270S/D101N/D185E/E277Q/E87N/F33Y/G231S/I121R/I218V/K168Q/L180W/L300P/L318F/P208A/P217A/Q86R/Q94H/R138Q/S129P/T187R/T323A/T345S/V100A/V358M)
- METHOD: biochemical
- Type: binding
No end group written: not given here.
VALUE_TYPE: IC50 (nM)
Just the number please, in nM, no unit attached.

LTDDSDIAYY [Peptide 1580.12]
738
SFEPIPIHY [Peptide 9015.0001]
953

Proceed to the following item.
If you can, please state the reported IC50 value of ITKIGPENPY [Peptide 9015.0162] . 985

----------
A2.1 for assorted sequences
- ASSAYED_TARGET: HLA-A*0201 (HLA-A2.1) (Homo sapiens, UniProt P04439, D140Y/D185E/D98H/E176V/E277Q/G131W/G231S/I119V/I121R/I166T/I218V/L300P/L318F/N151K/N90K/P208A/P217A/Q86G/Q94H/R138H/R169H/T345S)
- METHOD: biochemical
- Type: binding

Would you kindly share the measured A2.1 for ELSVMEVYD ? <0.0002

Which A2.1 is listed for VITKKVADL ? <0.0003

So what's the measured A2.1 for this one? PLVLGTLEE <0.0002

Look up A2.1 for this sequence: VQAATSSSS <0.0002

Suppose we examine the sequence QRQPSEGSS ; what A2.1 value has been reported? <0.0002

Requested field: A2.1. Item: MSSCGVQGP <0.0002

Item SREEEGPST has what recorded A2.1? <0.0002

Could you share which A2.1 value was measured for VFGIDVKEA ? <0.0002

Endpoint output: A2.1 of QQEALGLVC . Value? <0.0002

Which measured A2.1 value corresponds to PRKLLTQDL ? <0.0002

Name the reported A2.1 value associated with the sequence GREHSAYGE <0.0002

Which A2.1 value belongs to PKTGFLIIV ? <0.0002

Fill in: A2.1 of YKHCFPEIF is ___ <0.0002

Sample VIFSKASSSL — what was its A2.1? 0

----------
- ASSAYED_TARGET: A*2902 (Homo sapiens, UniProt P04439, A270S/D101N/D185E/E176V/E277Q/E87Q/F33T/G231S/H175R/I121M/I218V/I322F/K168Q/L300P/L318F/M331R/P208A/P217A/Q86L/T323A/T345S/V100A/V358M)
- METHOD: biochemical
- Type: binding
No end group written: not given here.
Let's look at some sequences and their measured pIC50.
As a rule, pIC50 stands for the negative log10 of the concentration, concentration in M.

TTEPEAQNTTY [Peptide 9012.0166]
5.88
LFTDLRIVY [Peptide 78.0378]
7.92
FTSMPNPEGRY [Peptide 9012.0174]
6.77

Please give the measured pIC50 for this sequence: ISEYRHYQY [Peptide 78.0254] 6.07

Bench note: what pIC50 did FYSKVRKYRY [Peptide 78.0176] show? 6.84

Would you kindly share the measured pIC50 for LSDALEIPY [Peptide 1549.41] ? 5.80

// lookup pIC50 for VFADLRIVY [Peptide 1549.09] 8.54

What measured pIC50 goes with NTGILTVTY [Peptide 86.0152] ? 5.85

Which value of pIC50 has been reported for ASDVTACPYNY [Peptide 9012.0176] in the records? 5.61

Reported pIC50, sequence TSDYYIVTY [Peptide 1549.48] : ____ 4.92

// query pIC50 value for entry AFTDLTIVY [Peptide 78.0348] 7.44

Return reported pIC50; argument: LSDISEYRHY [Peptide 1549.45] 4.84

Consider the sequence YSRIRELRY [Peptide 78.0253] and give its measured pIC50. 5.20

Using the record for LFYSKVRKY [Peptide 78.0384] , report its pIC50. 6.70

I would be grateful if you could share the reported pIC50 for ISDYRHYCY [Peptide 1571.26] . 8.00

pIC50 lookup needed for MTETLNNTEY [Peptide 1593.15] , thanks. 6.33

For the sequence shown here, VTADLRIVY [Peptide 1549.50] , give the reported pIC50. 6.64

----------
- ASSAYED_TARGET: DRB1*0405 (Homo sapiens, UniProt P01903+P01911, A100R/A169T/D86S/F76Y/I96L/K127E/L162R/M171V/N62H/P40V/Q125Y/R42H/S133A/S149N/S66Y/V115G/V209L/W38E)
- METHOD: biochemical
- Format: binding
No end group written: not given here.
VALUE_TYPE: IC50 (µM)
API: value field is a number in µM; no unit string.

Some solved entries appear below for comparison.
TGWFEVEAVIERRTG [Peptide 90.0075]
6.11
YFKLFLQGTPKHNCL [Peptide 89.0133]
6.12
IIHLKGDANILKCLR [Peptide 90.0197]
6.5
PHAFPFDKNGNPVYE [Peptide 90.0106]
7.19
DRGIIILLLIRFRCS [Peptide 89.0062]
7.18

Given ALSVSKAKALQAIEL [Peptide 89.0170] , state its recorded IC50. 8.43

# query: IC50 of entry LCVNSTASDLRTIQQ [Peptide 1543.15] 0.49

Any idea what its IC50 is? The sequence is QEQMLIQPPKIRSPA [Peptide 89.0124] 8.05

Returns the measured IC50 for the input sequence. Input: QSTQVDIRILQELLM [Peptide 1543.11] 3.99

Requested read-out: IC50. Entry: QQQMFLGTVKIPPTV [Peptide 89.0187] 6.33

Which IC50 value belongs to FLSYFKLFLQGTPKH [Peptide 89.0132] ? 7.81

Which IC50 is listed for NGWFYVEAVIDRQTG [Peptide 90.0062] ? 0.012

Could you tell me which IC50 is on file for LKVLIQPYSIYAHLQ [Peptide 89.0098] ? 2.24

----------
- ASSAYED_TARGET: HLA-A3.2 (A*0301) (Homo sapiens)
- METHOD: biochemical
- Type: binding
No end group written: not given here.
In this section, each of the sequences is paired with its reported IC50.
# value in nM; strip the unit string

Here are 7 sequences together with their reported answers.
VVPALSVSK [Peptide 1589.14]
515
KVSPIVHLK [Peptide 1589.42]
21
RTHSSHLKSKK [Peptide 1556.76]
59
KTTPVVHLK [Peptide 1589.37]
28
QTRSLTEILK [Peptide 9012.0217]
250
VSIEWRQRR [Peptide 9017.0089]
1350
SQWIRFRCSK [Peptide 88.0147]
415

Tell me reported IC50 for FTDLRIVYR [Peptide 1550.08] , tested with HLA-A3.2 (A*0301) (Homo sapiens). 2940

----------
- ASSAYED_TARGET: DRB1*0802 (Homo sapiens, UniProt P01903+P01911, A100R/A103L/A169T/F76Y/H45Y/I96F/K41T/L162R/M171V/P40S/Q125H/Q178H/Q39Y/Q99D/R218S/R42G/S66Y/V115G/W38E)
- METHOD: biochemical
- Assay type: binding
No end group written: not given here.
Item-by-item account of pIC50
When answering, recall that pIC50 equals minus log10 of the concentration in mol/L, and write that number alone.

ETHMVIEPPKLRSAT [Peptide 89.0103]
4.91
LKVLIKQHSLYTHLQ [Peptide 89.0061]
7.24
DFLNTVKIPNTVSVS [Peptide 1601.28]
5.68
IHFIQGAVISFVNST [Peptide 89.0037]
4.93
NGWFYVEAVIDRQTG [Peptide 90.0062]
5.40
VDFIDTQLSICEQAE [Peptide 89.0078]
5.13

From here, focus on the item given below.
Field request: pIC50 | item: Ac-NPTKHKWEAAHVAEQLAA [Peptide 724.01] 4.60

----------
- ASSAYED_TARGET: A2.1 HLA molecules (Homo sapiens, UniProt P04439, D140Y/D185E/D98H/E176V/E277Q/G131W/G231S/I119V/I121R/I166T/I218V/L300P/L318F/N151K/N90K/P208A/P217A/Q86G/Q94H/R138H/R169H/T345S)
- Assay type: binding
- Parameters: scale not given here
Entries and their measured A2.1 Binding follow.
Could you keep your reply to the number by itself?

Would you please look over these solved cases?
1.0092 (TLTCGFACL) [Peptide 1.0092]
0.0004
E7.11/1088.04 (YMLDLQPET)
0.14
E6.5211088.05 (FAFRDLCIV) [Peptide E6.5211088.05]
0.057
WMWFPSVLL
0.036
QLDYEKQVL
0
AMPRRVLHA
0.0014

Look up A2.1 Binding for this substance: E7.711088.07 (TLHEYMLDL) [Peptide E7.711088.07] 0.0070

Requested read-out: A2.1 Binding. Entry: RLLLTSLFFL 0.34

Which measured A2.1 Binding value corresponds to QLNAMKPDL ? 0.0001

# lookup: A2.1 Binding of RLTWRLTWL 0.0052

What does the data say about its A2.1 Binding? Entry: FMQTYLVTL 0.68

Query (substance): GLWCVLFFV ; field requested: A2.1 Binding 0.47
